tested on: OVCAR-5 ovarian; test: NCI-60 one-dose screen, 48 h; details: 10 µM unless noted
The panel holds about 83,000 compounds, 20% with a hit somewhere; the sample as a whole holds those more often. Active and inactive are the calls of the source. The calls were made as follows: active = growth percent below 10; inactive = the rest.
Your reply should match one of these outcome classes. t = active, f = inactive

Tell me the assay call for c1ccc2nc(Cn3cc[n+](Cc4ccc5ccccc5n4)c3)ccc2c1 please.
f

Identify the outcome logged in this assay for the molecule shown: Cc1ccc2nc(-c3ccc(-n4on4-c4ccc(/C=C/c5ccc(-n6on6-c6ccc(-c7nc8ccc(C)cc8s7)cc6)cc5S(=O)(=O)O)c(S(=O)(=O)O)c4)cc3)sc2c1
f

Record lookup: outcome of this test for O=[N+]([O-])c1cccc(C2c3ccccc3Oc3ccccc32)c1 ?
f

# fetch the recorded call for COc1cc(-c2nc3ccccc3s2)ccc1OCc1nc2n(n1)S(=O)(=O)c1ccccc1N2c1ccccc1 here
f

Assay result, entry COc1ccc(CCNC=O)cc1OC — outcome?
f

Dear all, I need the recorded test outcome for OCCOCC(F)(F)F , thank you.
f

Assay outcome for Cc1cc(NCCN(C(C)C)C(C)C)nc(/N=C(\N)Nc2ccc(Cl)c(C(F)(F)F)c2)n1 : what was it?
t

Field: outcome | Entry: COc1cc2c(cc1OC)-c1c(oc3c4c(ccc3c1=O)OC(C)(C)C=C4)CO2
f

Hi, sorry to bother you, what did the test record for Cn1c2ccccc2c2ssc(=S)c21 ?
f

What call does the record list for CC(C)CNCC(O)COc1ccc(C(C)(C)c2ccc(OCC(O)CNCC(C)C)cc2)cc1 (stereo unspecified) ?
f

What is the recorded call for this molecule in the test? CN(C)c1ccc(/C=N/N=C(N)N)cc1
f

Dear colleague, could you share the recorded outcome for O=C(Nc1ccc(-n2cc(-c3ccncc3)c(-c3ccc(O)c(Cl)c3)n2)cc1)Nc1cc(C(F)(F)F)cc(C(F)(F)F)c1 when you have a moment?
f

Record lookup: outcome of this test for Nc1nc(-c2cc3c(cc2Cl)NC(=O)/C3=C/c2ccccc2)cs1 ?
f

Dear all, I need the recorded test outcome for c1coc(CSc2ncnc3nc[nH]c23)c1 , thank you.
f

Assay outcome for Cc1cc2nc(-c3c(N)ncc(C#N)c3-c3ccc(Cl)cc3)[nH]c2cc1C : what was it?
f

Tell me the assay call for Nc1ncnc2c1c(C(F)(F)F)cn2[C@@H]1O[C@H](CO)[C@@H](O)[C@H]1O please.
f

// return assay outcome for Cc1cn(C2CC(N=[N+]=[N-])C(COP(=O)(O)OP(=O)(O)OP(=O)(O)O)O2)c(=O)[nH]c1=O (stereo unspecified)
f

Status in this test for O=C(O)c1cccc2oc(-c3ccccc3O)nc12 ?
f

Status in this test for O=C(O)c1ccc(-n2cc(/C=N/Nc3ccc(Cl)cc3)c(-c3ccc(F)c(F)c3)n2)cc1 ?
f

What call does the record list for CCCOC(=O)c1ccc([N+](=O)[O-])o1 ?
f

What call does the record list for Cc1cc2c(cc1C)N(C(=O)CCl)CCN2C(=O)CCl ?
t

* * *

system: NCI-H23 lung; assay: NCI-60 one-dose screen, 48 h (100 = growth as untreated, 0 = no growth, -100 = all killed); details: 10 µM unless noted
This is part of a sample that, as a whole, favours compounds with a hit. Of some 83,000 tested, about 20% had one in any assay.
Rule: measured growth below 50% gets Yes; anything equal to or greater than 50% gets No.

Field: below-cutoff. Rule: recorded growth strictly less than 50%. Subject: COc1ccc(/C(Cl)=N/N=C(\Cl)c2cc(OC)c(OC)c(OC)c2)cc1OC(C)=O
No

In plain terms, does O=C(NCCNc1nccc(-c2c(-c3cccc(O)c3)nc3sccn23)n1)c1cccc(C(F)(F)F)c1 come in under 50% for growth?
No

Does the reported growth of the following compound sit strictly below 50%? CCOC(=O)c1[nH]c(-c2ccc(Cl)cc2)cc1-c1cccnc1
Yes

For this compound, is growth lower than 50%? C=C1C(=O)O[C@H]2[C@H]1CC/C(CNC(=O)/C1=C/CC[C@@]3(C)O[C@H]3[C@H]3OC(=O)C(=C)[C@@H]3CC1)=C\CC[C@@]1(C)O[C@@H]21
No

State whether 50% exceeds growth recorded for Cc1c(C(C)(C)C)cc(C(C)(C)C)c2c1CN(C)CO2 .
No

In plain terms, does Oc1ccccc1/C=N/c1ccccn1 come in under 50% for growth?
No

Please let me know if Cc1ccc2[nH]c3nc4cccnc4c(C)c3c2c1 shows growth below 50%.
Yes

Given COc1ccccc1S(=O)(=O)Nc1ccc2c3c(cc(-c4cnn(C)c4)nc13)C(=O)N2C , is recorded growth strictly lower than 50%?
Yes
